experiment description: Average deviation between target (predicted) and measured tacrolimus serum level for dosing Functions 0, 1, 2
Set-up: species or system human
test context: Function 2; second row of Table 5; unit assumed
experimental endpoint: Average Deviation from Target Serum Level (ng/mL)
Answer format: numeric, ng/mL implied, no suffix.

Challenge: Report Average Deviation from Target Serum Level for C=CC[C@@H]1/C=C(\C)C[C@H](C)C[C@H](OC)[C@H]2O[C@@](O)(C(=O)C(=O)N3CCCC[C@H]3C(=O)O[C@H](/C(C)=C/[C@@H]3CC[C@@H](O)[C@H](OC)C3)[C@H](C)[C@@H](O)CC1=O)[C@H](C)C[C@@H]2OC [tacrolimus] please.
Response given: 0.6

----------
experiment description: Average deviation between target (predicted) and measured tacrolimus serum level for dosing Functions 0, 1, 2
Design: species or system human
test context: Function 2; first row of Table 5; unit assumed
experimental endpoint: Average Deviation from Target Serum Level (ng/mL)
Expressed in ng/mL, but write only the number.

Challenge: Given the entry C=CC[C@@H]1/C=C(\C)C[C@H](C)C[C@H](OC)[C@H]2O[C@@](O)(C(=O)C(=O)N3CCCC[C@H]3C(=O)O[C@H](/C(C)=C/[C@@H]3CC[C@@H](O)[C@H](OC)C3)[C@H](C)[C@@H](O)CC1=O)[C@H](C)C[C@@H]2OC , report its measured Average Deviation from Target Serum Level.
Response given: 1.4

----------
experiment description: Average deviation between target (predicted) and measured tacrolimus serum level for dosing Functions 0, 1, 2
Set-up: species or system human
test context: Function 1; first row of Table 5; unit assumed
experimental endpoint: Average Deviation from Target Serum Level (ng/mL)
Just the number please, in ng/mL, no unit attached.

Challenge: Give its Average Deviation from Target Serum Level value. Item: C=CC[C@@H]1/C=C(\C)C[C@H](C)C[C@H](OC)[C@H]2O[C@@](O)(C(=O)C(=O)N3CCCC[C@H]3C(=O)O[C@H](/C(C)=C/[C@@H]3CC[C@@H](O)[C@H](OC)C3)[C@H](C)[C@@H](O)CC1=O)[C@H](C)C[C@@H]2OC
Response given: 2

----------
experiment description: Average deviation between target (predicted) and measured tacrolimus serum level for dosing Functions 0, 1, 2
Parameters: species or system human
test context: Function 0; first row of Table 5 (one of the two PPM patients); unit assumed
Source text: Additionally, data from the clinical trial was utilized to determine the average deviations between a target (i.e., predicted) serum level and an actual (i.e., measured) serum level for the two PPM patients. Where Function 0 is ST(DT, t)=x0(t)+x1(t)DT+x11(t)DT^2; Function 1 is [(D/S)T](N+1) day=[(D/S)T]N day; and Function 2 is [(D/S)T]next day=x0(t)+x1(t)[AST×(D/S)T]today+z11(t)[AST×(D/S)T] today. […]
experimental endpoint: Average Deviation from Target Serum Level (ng/mL)
Hi! Could you send only the number? It should be in ng/mL, unit omitted.

Challenge: Fill in: Average Deviation from Target Serum Level of C=CC[C@@H]1/C=C(\C)C[C@H](C)C[C@H](OC)[C@H]2O[C@@](O)(C(=O)C(=O)N3CCCC[C@H]3C(=O)O[C@H](/C(C)=C/[C@@H]3CC[C@@H](O)[C@H](OC)C3)[C@H](C)[C@@H](O)CC1=O)[C@H](C)C[C@@H]2OC is ___
Response given: 2.9

----------
experiment description: Average deviation between target (predicted) and measured tacrolimus serum level for dosing Functions 0, 1, 2
Set-up: species or system human
test context: Function 1; second row of Table 5; unit assumed
experimental endpoint: Average Deviation from Target Serum Level (ng/mL)
The reply should contain only the number, in ng/mL.

Challenge: Quick check: Average Deviation from Target Serum Level of C=CC[C@@H]1/C=C(\C)C[C@H](C)C[C@H](OC)[C@H]2O[C@@](O)(C(=O)C(=O)N3CCCC[C@H]3C(=O)O[C@H](/C(C)=C/[C@@H]3CC[C@@H](O)[C@H](OC)C3)[C@H](C)[C@@H](O)CC1=O)[C@H](C)C[C@@H]2OC [tacrolimus] ?
Response given: 1.2
